Test: yeast display, Sf9 membrane polyspecificity reagent, FACS + sequencing; frameworks hold sequencing errors
readout_name: polyreactivity (PSR sort gate)

Answered examples (4):
residue_string	value_reported
QVQLVESGGCLVQAGGSLRLSCAASGRTLDFNVLGWYRPAPGQERELVAAITWSGGSTYYADSVKGRFTISRDNAQNTVYLQMNSLKQEDTAGYYCAAKALYAYRLYDYSGQGTQVTVSS	high polyreactivity
QVQLVESGGGLVQAGGSLRLSCAASGRIFTYYGMGWYRQAPGKEWELVAAISSSGDSTFYADSVKGRFTISRDNAKNTVYLQMNSLKPEDTAVYYCAADYYYVWYDYWGQGTQVTVSS	low polyreactivity
QVQLVESGGGLDQAGGSLRLSCAASGFIFITYEMGWYRQAPGKQMELVAVITSGGTTNYADSVKGRFTISRDNAKNTVYLQMNSLKPEDTAVYYCAAEDYVIGDSGYDYWGQGTQVTVSS	low polyreactivity
QVQLVESGGGLVQAGGSLRLSCAASGSIFIDYVMGWYRQAPGTERELVAAISKRGGSTYYADSVKGRFTISRDNAKNTVYLQMNSLKPEDTAVYYCNAYRIGVYTAKDGYWGQGTQVTVSS	high polyreactivity

--- query ---
Documented polyreactivity (PSR sort gate) of QDQRVESGGGLVQAGGSLRLSCAASGRIFSWYAMGWYRQAPGQERELVAAIDSGGRTNYADSVKGRFTISRDNAKNTVYLQMNSLKPEDTAVYYCAKEGYWPRYWERFDYWGQGTQVTVSS : low polyreactivity

====

Assay: yeast display, Sf9 membrane polyspecificity reagent, FACS + sequencing; frameworks hold sequencing errors
readout_name: polyreactivity (PSR sort gate)

Here's what some known entries look like.
residue_string	polyreactivity (PSR sort gate)
QVQLVESGGGLVQAGGSLRLSCAASGSTFGWYAMGWYRQAPGKEREFVAAISWSGTSTYYADSVKGRFTISRDNAKNTVYLQMNSLKPEDTAVYYCNARSKRANRSLGLGYWGQGTQVTVSS	low polyreactivity
QVKLVESGGGLVQAGGSLRLSCAASGSIFRRYGMGWYRQAPGKERELVAVITRGGSTYYADSVKGRFTISRDNAKNTVYLQMNSLKPEDTAVYYCNRSAGKDGQVGGQYDYWGQGTQVTVSS	high polyreactivity
QVQLVESGGGLVQAGGSLRLSCAASGRIFVYYAMGWYRQAPGKEREFVAAITDSGGGTYYADSVKGRFTISRDNAKNTVYLQMNSLKPEDTAVYYCAKRFGQYRYPYDYWGQGTQVTVSS	high polyreactivity
QVQLVESGGGLVQAGGSLRLSCAASGSTLYPNAMGWYRQAPGKERELVAAISSGSSTYADSVKGRFTISRDNAKNTVYLQMNRLKPEDTAVYYCNADSRIHYDYWGQGTQVTVSS	low polyreactivity
QVQLVESGGGLVQAGASLRLSCAASGSNSKSYAMGWYRPAPGKERELVAAISWRGGSTYADSVKGRFTNSRDNAKNTVYFQMNSQKPVDTAVYYWAATNYGTFWGGQSERYDYWGQGTQVTVSS	low polyreactivity
QVQLVESGGGLVQAGGSLRLSCAASGFILAGYAMGWSRQAPGKERELVAAINSRGTRTYYADSVKGRFTISRDNAKNTVYLQMNSLKPEDTAVYYCAVHVWGTYGSWEYYYWGQGTQVTVSS	high polyreactivity
QLQLVESGGGLFQAGGSLRLSCAPSGFIFTAYTMGWYRQAHGKESELVAAIDSGGGTYYADYVKGRFTISRYNAKNTVYLQIHSLKPDDTAVYYCAADPAKSRAGDFDYWGQGTQVTVSS	high polyreactivity
QVQLVESGGGLVQAGGSLRLSCAASGGTFGRNAMGWYRQAPGKERELVATITRRGGSTYYADSVKGRFTISRDNAKNTVYLQMNSLKPEDTAVYYCAAAGRYSNGTGYGYWGQGTQVTVSS	high polyreactivity
QVQLVESGGGLVQAGGSLRLSCAASGYTFYVYAMGWYRQAPGKERELVADISTSDGSTYYADSVKGRFTISRDNAKNTVYLQMNSLKPEDTAVYYCNTDGSHGLYDWFWPANNDDWGQGTQVSVSS	low polyreactivity
QVQLVESGGGLVQAGGSLRLSCAASGTNQGVNAMGWYRQAPGKEREFDAAITGRGGNTYYADSVKGRYTISRDNAKNTVYLQLNSLKPDDTAVYYCAARVKDTRYQSMLDYFYWGQGTEVTVSS	high polyreactivity

Then this sequence:
Value of measured polyreactivity (PSR sort gate) for the entry QVQLVESGGGLVQAGGSLRLSCAASGSTFYNYAMGWYRQEPGKERELVAAINYSGGDTYYADSVKGRFTISRDNAKNTVYLQMNSLKPEDNAVYYCNAEWDYYSSNPVQNDYDYWGQGTQVTVSS : high polyreactivity

====

Assay: yeast display, Sf9 membrane polyspecificity reagent, FACS + sequencing; frameworks hold sequencing errors
readout_name: polyreactivity (PSR sort gate)

Worked cases, answers included:
residue_string	polyreactivity (PSR sort gate)
QVQLVESGGGLVQAGGSLRLSCAASVRISVFNAMGWYRKPPGKESELVAGISNGGSTNYADSVKGRFTISRDNAKNTVYLQMNSLKPEDTAVYYCANDEPKVCRAFDYWGQGTQVTVSS	low polyreactivity
QVQLVESGGGLVQAGGSLRLSCAASGFIFLEYAMGWYRQAPGKERELVAAISARTGSTYYADSVKGRFTISRDNEKNTVYLLMNSLIPEDTAVYYSNKLTWRGEVDYWGHGTQVTVSS	high polyreactivity
QVQLVESGGGLVQAGGSLRLICAASGSIFIRNAMGWYRQAPGKERELVAAITSRGGSTYYADSVKGRFTISRDNAKNTVFLQMNSLKPEDTAVYYCARRYYGLYDYWGQGTQVTVSS	low polyreactivity
QVQLVESRGGLVQAGGSLRLSCAASGRILPYHVMGWYSQAPGKERELVAAISSGGTTDYADSVKGRFTISRDNANNTVYLQMNSLKPEDTAVYYCAATYDYWTWGYDYWGQGTQVTVSS	low polyreactivity

Record summary for QVQLVESGGGLVQAGGSLRLSCAASGRTFSKYAMGWYRQAPGKERELVAAITSGGGTYYADSVKGRFTISRDNAKNTVYLQMNSLKPEDTAVYYCAVSVTTVSTYDYWGQGTQVTVSS : reported polyreactivity (PSR sort gate) = low polyreactivity

Lab note: measured polyreactivity (PSR sort gate) of QVQHVDSGGGLVQAGGSLRLSCAASGSTFQLYAMGRDRQAPGKERELVASISWSGGSTYYADSVKGRFTISRDNAKNTVYLQMNSLKPEDTAVYSCNDDFWWRYRPGAVFPSYGYWGQGTQVTVSS was low polyreactivity

# polyreactivity (PSR sort gate) (sequence: QVQLVESGGGLVQAGGSLRLSCAASGFIFVYYAMGWYRQAPGKERELVAAISRASSTSYADSVKGRFTISRDNAKNTVYLQMISLKPEDTAVYYCAAVYYGGFSDYDYWGQGTQVTVSS ) is low polyreactivity

Form field polyreactivity (PSR sort gate), entry QVQLVESGGGLVQAGGSLRLSCAASGRTFYYYAMGWYRQAPGKERELVAAIRWSTGSTYYADSVKGRFTISRDNAKNTVYLQMNSLKPEDTAVYYCAADTWYIQWGYYWGQGTQVTVSS : low polyreactivity

Summary for this sequence, QVQLVESGGGLVQAGGSLRLSCAASGRIFPTNAMGWYRQAPGKERELVAAIPVSGGSTYYADSVKGRFTISRDNAKNTVYLQMNSLKPEDTAVYYCAVDDRASVGSRLDHWGQGTQVTVSS : polyreactivity (PSR sort gate) is low polyreactivity

sequence QVQLVESGGCLVQAGGSLRLSCAASGSTFVYNTMGWYRQAPGKERELVASISSDGNTYYADSVKGRFTISRDNAKNTVYLQMNSLKPEDTAVYYCAARYYYDWRFVGYDYWGQGTQVTVSS , polyreactivity (PSR sort gate) observed: low polyreactivity

Data point: QVQLVESGGGLVQAGGSLRLSCAASGIIFYLYTIGWYRQAPGKEREFVADISSGTTTYYADSVKGRFTISRDNAKNTVYLQMNSLKPEDTAVYYCNAQYNYYTWKLAYTFDYWGQGTQVTVSS ; polyreactivity (PSR sort gate) = high polyreactivity

====

Assay: yeast display, Sf9 membrane polyspecificity reagent, FACS + sequencing; frameworks hold sequencing errors
readout_name: polyreactivity (PSR sort gate)

residue_string	polyreactivity (PSR sort gate)
QVQLVESGGGLVQAGGSLRLSCAASGGIFNINAMGWYRQAPGKERELVASIRGSGGRTYYADSVKGRFTISRDNAKNTVYLQMNSLKPEDTAVYYCNAESYSTWSFGHRYEYDYWGQGTQVTVSS	low polyreactivity
QVQLVESGGGLVQAGGSLRLSCAASGRIFQYNAMGWYRQSPGKERELVAAIRRGGGSTYYADSVKGRFTISRDNAKNTVYLQMNSLKPEDTAVYYCAARRKRVSFYPEYDYWGQGTQVTVSS	low polyreactivity
QVQLVESGGGLVQAGGSLRLSCAASGFIFQGYTMGWYRQAAGKERELVAAITSSGRTYYADSVKGRFTISRDNAKNTVYLQMNSLKPEDTAVYYCNADFLPSVANDYWGQGTQVTVSS	low polyreactivity
QVQLVESGGGLVQAGGSLRLSCAASGRIFDFNAMGWYRQAPGKEREFVAAIRTSGGDSTYYADSVKGRFTISRDNAKTTVYLQMNSLTPEDTAVYYCAKTVWWYYRYPFDYWGQGTQVTVSS	low polyreactivity
QVHLVESGGGLVQAGGSLRLSCAASGGTFRTYAMGWYRQAPGTERELVAAITWRGGSTYYADSVKGRFTISRDNAKNTVYLQMNSLKPEDTAVYYCAARGAYQWSFYKDDYWGQGTQVTVSS	high polyreactivity
QDQLVESGGGLVQEGGSLRLSCAASGRIFYFNARGWYRQAPGKERELVADISSGGRTNYADSVKGRFTFSRDNAKNSVYVQMNSEKPEDTAVYYCNSEPYTSSGGYRGYDFDYWGQGSQVTVSS	low polyreactivity

The measured polyreactivity (PSR sort gate) associated with QVQLVESGGGLVQAGGSLRLSCAASGLTFNYYDMGWYRQAPGKERELVAAISRSGTNTSYADSVKGRFTISRDNAKNTVYLQMNSLKPEDTAVYYCNAAGVYLAAGPYTANFNYNYWGQGTQVTVSS reads low polyreactivity

The measured polyreactivity (PSR sort gate) associated with QVQLVESGGGLVQAGGSLRLSCAASGFIFEDYAMGWYRQAPGKERELVAAIRSNDDSTYYADSVKGRFTISRDNAKNTVYLQMNSLKPEDTAVYYCAAVRYVHFGYDYWGQGTQVTVSS reads high polyreactivity

src = the nanobody polyreactivity screen of Harvey et al. (2022)
